Just for reference, the supplement of paper PMC9732359 is where these values come from.

assay: protein stability index of a GFP-peptide fusion (yeast GPS) (PSI 1-4); higher = more stable; sorted into four equal gates, so the index is relative within each strain; conditions: pdr5∆
Some sequences, each annotated with its measured protein stability index.

Worked set:
>  <CHAIN>
ADNSGARNLYIIAVKGS [RPL23A]

>  <protein stability index>
1.63

$$$$
>  <CHAIN>
KKQNLSSHQRVFKLSTN [SWP82]

>  <protein stability index>
2.08

$$$$
>  <CHAIN>
GSRKVAGILRGYDIFLN [SMX2]

>  <protein stability index>
1.67

$$$$

protein stability index reading for KWAGIKTRKFVFNPPKP [CYT1] : 2.98

Reported protein stability index of NAQSKLSLTLNTHYHAD [SNF2] : 2.81

Recorded result, NANAGLFNKPPSTNAQN [YOR098C/NUP1] , protein stability index: 3.17

PTATPSPFRPLEKTSRI [YMR153W/NUP53] yielded protein stability index of 2.51

* * *

assay: protein stability index of a GFP-peptide fusion (yeast GPS) (PSI 1-4); higher = more stable; sorted into four equal gates, so the index is relative within each strain; settings: pdr5∆
Listing: protein stability index of selected sequences

Observe how each entry below is paired with its result.
>  <CHAIN>
LLCDKAQKNTQSYGGRP [PRE5]

>  <MEASURED VALUE>
3.27

$$$$
>  <CHAIN>
SSIENNINNNINSTKNG [MED2]

>  <MEASURED VALUE>
3.11

$$$$
>  <CHAIN>
NKYANNDFANNLPKEGD [CSL4]

>  <MEASURED VALUE>
3

$$$$
>  <CHAIN>
NFAHSDSLSVPKVSAGD [SIR4]

>  <MEASURED VALUE>
2.98

$$$$
>  <CHAIN>
IKCSQSSHLSDNDFIIN [POP5]

>  <MEASURED VALUE>
2.85

$$$$

Per the record, WVYKTKGDGMTSAVASI [RPN1] has protein stability index of 3.14

// protein stability index lookup, sequence = TEKEPVPAVVDDPLENM [SNF6] , result: 3.12

Reported protein stability index of AHIAKNLINLSIGASIA [YCS4] : 1.37

protein stability index for KSIMDGIHDGHIKKLLH [FAS1] is 1.48

Lab note: AFNQVEIRPEMLGHYLG [RPS15] gave protein stability index of 3.09

* * *

experiment: protein stability index of a GFP-peptide fusion (yeast GPS) (PSI 1-4); higher = more stable; sorted into four equal gates, so the index is relative within each strain; conditions: ubr1∆
protein stability index by entry:
Please reply with the value in numeric form only.

// solved cases for protein stability index follow
>  <CHAIN>
ARCYRYQKNKPYPKSRY [RPL10]

>  <protein stability index>
2.77

$$$$
>  <CHAIN>
NIWGTVRTNRFDIIEES [ECM29]

>  <protein stability index>
2.98

$$$$
>  <CHAIN>
VTPEDVMTISSLEQRTL [RPC82]

>  <protein stability index>
3.25

$$$$
>  <CHAIN>
QCIVYPNCLFILKLLNG [SOH1]

>  <protein stability index>
1.29

$$$$
>  <CHAIN>
PGSVEEVDKSKLITTYI [YDL116W/NUP84]

>  <protein stability index>
3.42

$$$$
>  <CHAIN>
TETFEKPQRTNTLRMKH [RPB2]

>  <protein stability index>
3.05

$$$$

Noted for NKLGNKRLTEDERIEKE [CDC53] : its protein stability index reads 2.42
